# Target Or Test System: Kappa-type opioid receptor (Cavia porcellus)
# Sequence (P41144 whole entry): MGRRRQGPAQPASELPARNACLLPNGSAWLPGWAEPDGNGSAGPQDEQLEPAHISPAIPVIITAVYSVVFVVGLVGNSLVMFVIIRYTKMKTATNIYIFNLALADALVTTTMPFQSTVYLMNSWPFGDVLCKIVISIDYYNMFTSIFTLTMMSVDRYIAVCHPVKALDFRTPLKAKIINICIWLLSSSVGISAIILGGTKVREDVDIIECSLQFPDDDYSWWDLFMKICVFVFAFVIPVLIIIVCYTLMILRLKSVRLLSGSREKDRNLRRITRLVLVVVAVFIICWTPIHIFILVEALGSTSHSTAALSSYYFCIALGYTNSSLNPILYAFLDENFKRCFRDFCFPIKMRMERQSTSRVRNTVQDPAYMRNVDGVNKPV
Readout Type: pKi
Numbers only, as −log10 of the molar value.

Some compounds with known pKi results, for comparison:
1) CCCCN1CC[C@]23c4c5ccc(O)c4O[C@H]2c2[nH]c4c(c2C[C@@]3(O)[C@H]1C5)C[C@@]1(O)[C@H]2Cc3ccc(O)c5c3[C@@]1(CCN2CC1CC1)[C@H]4O5
10.40
2) NCC(=O)NCC(=O)N1CC[C@]23c4c5ccc(O)c4O[C@H]2c2[nH]c4c(c2C[C@@]3(O)[C@H]1C5)C[C@@]1(O)[C@H]2Cc3ccc(O)c5c3[C@@]1(CCN2CC1CC1)[C@H]4O5
7.68
3) N=C(N)NCCN1CC[C@]23c4c5ccc(O)c4O[C@H]2c2[nH]c4c(c2C[C@@]3(O)[C@H]1C5)C[C@@]1(O)[C@H]2Cc3ccc(O)c5c3C1(CCN2CC1CC1)[C@H]4O5
9.23

## Input // pKi lookup, key: NCCN1CC[C@]23c4c5ccc(O)c4O[C@H]2c2[nH]c4c(c2C[C@@]3(O)[C@H]1C5)C[C@@]1(O)[C@H]2Cc3ccc(O)c5c3[C@@]1(CCN2CC1CC1)[C@H]4O5
## Output 8.47
